tested-on: purified recombinant human Aurora-B kinase (Homo sapiens)
Construct: purchased Cell Signaling Technology
assay-name: In vitro Aurora-B kinase activity assay (ELISA kit)
Assay type: biochemical
study-conditions: 75 μM ATP; read-out: IC50 for Aurora-B at given ATP concentration

molecule-smiles	tested-on	IC50
CC[C@H](C)[C@H]1C(=O)O[C@H]2c3cc(C)cc(O)c3C3=C(C(=O)c4c(O[C@H]5C[C@@H](O)[C@@H](O)[C@H](C)O5)cccc4C3=O)N12	purified recombinant human Aurora-B kinase (Homo sapiens)	24.5 µM

###

tested-on: purified recombinant human Aurora-B kinase (Homo sapiens, UniProt Q96GD4)
Construct: purchased Cell Signaling Technology
Sequence (Q96GD4 whole entry): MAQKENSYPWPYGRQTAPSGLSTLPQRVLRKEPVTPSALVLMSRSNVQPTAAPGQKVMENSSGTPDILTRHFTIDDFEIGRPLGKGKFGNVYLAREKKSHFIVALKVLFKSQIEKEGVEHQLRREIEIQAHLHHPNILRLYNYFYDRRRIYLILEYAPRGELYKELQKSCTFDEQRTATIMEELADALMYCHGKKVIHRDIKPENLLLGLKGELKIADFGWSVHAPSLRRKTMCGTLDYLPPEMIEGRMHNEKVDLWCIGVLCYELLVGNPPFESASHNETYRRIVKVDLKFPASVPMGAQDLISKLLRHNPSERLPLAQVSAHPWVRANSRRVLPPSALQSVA
assay-name: In vitro Aurora-B kinase activity assay (ELISA kit)
Format: biochemical
study-conditions: 25 μM ATP, ATP titration FIG. 3B; read-out: IC50 for Aurora-B at given ATP concentration
pIC50: −log10 of the molar value.

compound	pIC50
CC[C@H](C)[C@H]1C(=O)O[C@H]2c3cc(C)cc(O)c3C3=C(C(=O)c4c(O[C@H]5C[C@@H](O)[C@@H](O)[C@H](C)O5)cccc4C3=O)N12 [Jadomycin B]	4.90

###

tested-on: purified recombinant human Aurora-B kinase (Homo sapiens)
assay-name: In vitro Aurora-B kinase activity assay (ELISA kit)
study-conditions: from linear fit of IC50 versus [ATP]
pKi: −log10 of the molar value.

molecule-smiles	pKi
CC[C@H](C)[C@H]1C(=O)O[C@H]2c3cc(C)cc(O)c3C3=C(C(=O)c4c(O[C@H]5C[C@@H](O)[C@@H](O)[C@H](C)O5)cccc4C3=O)N12	5.17

###

tested-on: purified recombinant human Aurora-B kinase (Homo sapiens)
Construct: purchased Cell Signaling Technology
assay-name: In vitro Aurora-B kinase activity assay (ELISA kit)
Assay type: biochemical
study-conditions: 100 μM ATP; read-out: IC50 for Aurora-B at given ATP concentration

molecule-smiles	IC50
CC[C@H](C)[C@H]1C(=O)O[C@H]2c3cc(C)cc(O)c3C3=C(C(=O)c4c(O[C@H]5C[C@@H](O)[C@@H](O)[C@H](C)O5)cccc4C3=O)N12	32.2 µM

###

tested-on: purified recombinant human Aurora-B kinase (Homo sapiens, UniProt Q96GD4)
Construct: purchased Cell Signaling Technology
assay-name: In vitro Aurora-B kinase activity assay (ELISA kit)
Type: biochemical
study-conditions: 25 μM ATP, fitted inhibition curve FIG. 3A; read-out: IC50 for inhibition of Aurora-B kinase activity
pIC50: −log10 of the molar value.

compound	pIC50
CC[C@H](C)[C@H]1C(=O)O[C@H]2c3cc(C)cc(O)c3C3=C(C(=O)c4c(O[C@H]5C[C@@H](O)[C@@H](O)[C@H](C)O5)cccc4C3=O)N12 [Jadomycin B]	4.98

###

tested-on: purified recombinant human Aurora-B kinase (Homo sapiens, UniProt Q96GD4)
Construct: purchased Cell Signaling Technology
assay-name: In vitro Aurora-B kinase activity assay (ELISA kit)
Type: biochemical
study-conditions: 200 μM ATP; read-out: IC50 for Aurora-B at given ATP concentration

compound	IC50
CC[C@H](C)[C@H]1C(=O)O[C@H]2c3cc(C)cc(O)c3C3=C(C(=O)c4c(O[C@H]5C[C@@H](O)[C@@H](O)[C@H](C)O5)cccc4C3=O)N12 [Jadomycin B]	53.1 µM
